Would you mind telling me the reported Chickweed plant response rating of each entry?
Test system: chickweed
Test: Test C postemergence
Type: in vivo, Stellaria media
Details: postemergence, 62 g ai/ha; scale 0 to 100
No unit in the answer, only the number.

Item under review: CCCc1cc(C(=O)NOCC)nn1Cc1ccnc(C(F)(F)F)c1 [Compound 185] . Reported Chickweed plant response rating?
80

Data request, read-out Chickweed plant response rating, for CCc1cc(C(=O)NCC2CC2)nn1Cc1ccnc(C(F)(F)F)c1 [Compound 199]
60

Return reported Chickweed plant response rating; argument: CCOc1cc(C(=O)NC2CC2)nn1Cc1ccnc(C(F)(F)F)c1 [Compound 189]
80

Quick check: Chickweed plant response rating of CCCc1cc(C(=O)NCC(F)(F)F)nn1Cc1cc(C(F)(F)F)nn1C [Compound 138] ?
80

Please give the measured Chickweed plant response rating for this molecule: CCOc1cc(C(=O)NC2CC2)nn1Cc1ccnc(OC(F)F)c1 [Compound 133]
60
